molecular target: UniProt:P06536; experiment: Transactivation activity at glucocorticoid receptor in rat H4II-E cells assessed as induction of tyrosine aminotransferase
Sequence (P06536 whole entry): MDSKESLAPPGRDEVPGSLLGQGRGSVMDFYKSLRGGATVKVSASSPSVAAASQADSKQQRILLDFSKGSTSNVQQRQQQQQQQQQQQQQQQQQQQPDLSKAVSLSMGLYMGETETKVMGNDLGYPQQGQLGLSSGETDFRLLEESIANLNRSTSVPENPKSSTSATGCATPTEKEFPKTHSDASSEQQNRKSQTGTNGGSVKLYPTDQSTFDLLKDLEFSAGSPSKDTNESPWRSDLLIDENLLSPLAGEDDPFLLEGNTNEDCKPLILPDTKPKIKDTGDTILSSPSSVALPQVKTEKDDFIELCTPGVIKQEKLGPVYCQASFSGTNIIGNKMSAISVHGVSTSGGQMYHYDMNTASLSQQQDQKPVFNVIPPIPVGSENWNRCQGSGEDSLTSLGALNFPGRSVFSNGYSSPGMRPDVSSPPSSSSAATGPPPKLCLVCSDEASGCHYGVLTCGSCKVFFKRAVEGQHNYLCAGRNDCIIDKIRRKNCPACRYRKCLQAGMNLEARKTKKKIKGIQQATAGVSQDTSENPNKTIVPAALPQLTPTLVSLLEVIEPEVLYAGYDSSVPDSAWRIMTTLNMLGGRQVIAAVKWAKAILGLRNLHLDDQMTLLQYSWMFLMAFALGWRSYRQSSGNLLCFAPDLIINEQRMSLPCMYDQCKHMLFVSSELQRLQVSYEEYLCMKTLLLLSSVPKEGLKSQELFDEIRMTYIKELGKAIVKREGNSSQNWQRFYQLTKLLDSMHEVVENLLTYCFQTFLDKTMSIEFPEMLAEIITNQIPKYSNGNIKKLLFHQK
Measurement Kind: IC50 (µM)
All answers are understood in µM, so give the number only.

Study these solved cases before continuing.
Consider the compound C[C@]12Cc3cnn(-c4ccccc4)c3C=C1CC[C@@H]1[C@@H]2[C@@H](O)C[C@@]2(C)[C@H]1CC[C@]2(O)C(=O)CSc1nc2ncccc2o1 and give its measured IC50. 0.0338

Requested field: IC50. Item: C[C@]12Cc3cnn(-c4ccc(F)cc4)c3C=C1CC[C@@H]1[C@@H]2[C@@H](O)C[C@@]2(C)[C@H]1CC[C@]2(O)C(=O)CSc1ccccn1 0.0045

Lab note: next compound to report on.
Recorded IC50 of C[C@]12Cc3cnn(-c4ccc(F)cc4)c3C=C1CC[C@@H]1[C@@H]2[C@@H](O)C[C@@]2(C)[C@H]1CC[C@]2(O)C(=O)CSc1nccc2ccccc12 , please. 0.0654
